Test system: Staphylococcus aureus
Assay: microbe, parasite or virus in culture
Assay type: functional
Details: time 20 hrs
endpoint_label: MIC (µg/mL)
Numbers only, in µg/mL.

Required: MIC, one value per compound below.
1. C=C[C@]1(C)C[C@@H](OC(=O)CSc2nc3ccc(F)cc3c(=O)[nH]2)[C@]2(C)[C@H](C)CC[C@]3(CCC(=O)[C@H]32)[C@@H](C)[C@@H]1O
2. C=C[C@]1(C)C[C@@H](OC(=O)CN2CCN(C(=O)c3nc4ccccc4c(=O)[nH]3)CC2)[C@]2(C)[C@H](C)CC[C@]3(CCC(=O)[C@H]32)[C@@H](C)[C@@H]1O
3. C=C[C@]1(C)C[C@@H](OC(=O)CSc2nc3cc(Cl)ccc3c(=O)[nH]2)[C@]2(C)[C@H](C)CC[C@]3(CCC(=O)[C@H]32)[C@@H](C)[C@@H]1O
4. C=C[C@]1(C)C[C@@H](OC(=O)CSc2nc3ccccc3c(=O)n2-c2ccccc2)[C@]2(C)[C@H](C)CC[C@]3(CCC(=O)[C@H]32)[C@@H](C)[C@@H]1O
5. C=C[C@]1(C)C[C@@H](OC(=O)CSc2nc3cc(Br)ccc3c(=O)[nH]2)[C@]2(C)[C@H](C)CC[C@]3(CCC(=O)[C@H]32)[C@@H](C)[C@@H]1O
6. C=C[C@]1(C)C[C@@H](OC(=O)CSc2nc3ccccc3c(=O)n2C)[C@]2(C)[C@H](C)CC[C@]3(CCC(=O)[C@H]32)[C@@H](C)[C@@H]1O
7. C=C[C@]1(C)C[C@@H](OC(=O)CSCCN(CC)CC)[C@]2(C)[C@H](C)CC[C@]3(CCC(=O)[C@H]32)[C@@H](C)[C@@H]1O [TIAMULIN]
8. C=C[C@]1(C)C[C@@H](OC(=O)CSc2nc3cc(OC)ccc3c(=O)[nH]2)[C@]2(C)[C@H](C)CC[C@]3(CCC(=O)[C@H]32)[C@@H](C)[C@@H]1O

1: 0.5; 2: 0.5; 3: 0.5; 4: 32; 5: 0.5; 6: 0.25; 7: 0.5; 8: 0.25

Required: MIC, one value per compound below.
1. C=C[C@]1(C)C[C@@H](OC(=O)CSc2nc3[nH]ccc3c(=O)[nH]2)[C@]2(C)[C@H](C)CC[C@]3(CCC(=O)[C@H]32)[C@@H](C)[C@@H]1O
2. C=C[C@]1(C)C[C@@H](OC(=O)CSc2nc3c(c(=O)[nH]2)CCC3)[C@]2(C)[C@H](C)CC[C@]3(CCC(=O)[C@H]32)[C@@H](C)[C@@H]1O
3. C=C[C@]1(C)C[C@@H](OC(=O)CSc2nc3ccccc3c(=O)n2CC)[C@]2(C)[C@H](C)CC[C@]3(CCC(=O)[C@H]32)[C@@H](C)[C@@H]1O
4. C=C[C@]1(C)C[C@@H](OC(=O)CSc2nc3ccccc3c(=O)[nH]2)[C@]2(C)[C@H](C)CC[C@]3(CCC(=O)[C@H]32)[C@@H](C)[C@@H]1O
5. C=C[C@]1(C)C[C@@H](OC(=O)CN2CCN(c3nc4ccccc4c(=O)[nH]3)CC2)[C@]2(C)[C@H](C)CC[C@]3(CCC(=O)[C@H]32)[C@@H](C)[C@@H]1O
6. C=C[C@]1(C)C[C@@H](OC(=O)CSc2nc3c(Br)cccc3c(=O)[nH]2)[C@]2(C)[C@H](C)CC[C@]3(CCC(=O)[C@H]32)[C@@H](C)[C@@H]1O
7. C=C[C@]1(C)C[C@@H](OC(=O)CSc2nc3c(F)cccc3c(=O)[nH]2)[C@]2(C)[C@H](C)CC[C@]3(CCC(=O)[C@H]32)[C@@H](C)[C@@H]1O
8. C=C[C@]1(C)C[C@@H](OC(=O)CS[C@@H]2C[C@H]3CC[C@@H](C2)N3C)[C@]2(C)[C@H](C)CC[C@]3(CCC(=O)[C@H]32)[C@@H](C)[C@@H]1O [RETAPAMULIN]

0.063
0.25
0.25
0.25
0.125
0.25
0.063
0.063

Required: MIC, one value per compound below.
1. C=C[C@]1(C)C[C@@H](OC(=O)CSc2nc3cccc([N+](=O)[O-])c3c(=O)[nH]2)[C@]2(C)[C@H](C)CC[C@]3(CCC(=O)[C@H]32)[C@@H](C)[C@@H]1O
2. C=C[C@]1(C)C[C@@H](OC(=O)CSc2nc3cccc(OC)c3c(=O)[nH]2)[C@]2(C)[C@H](C)CC[C@]3(CCC(=O)[C@H]32)[C@@H](C)[C@@H]1O
3. C=C[C@]1(C)C[C@@H](OC(=O)CSc2nc3cccc(F)c3c(=O)[nH]2)[C@]2(C)[C@H](C)CC[C@]3(CCC(=O)[C@H]32)[C@@H](C)[C@@H]1O
4. C=C[C@]1(C)C[C@@H](OC(=O)CSc2nc3cc(F)ccc3c(=O)[nH]2)[C@]2(C)[C@H](C)CC[C@]3(CCC(=O)[C@H]32)[C@@H](C)[C@@H]1O

1: 0.25; 2: 0.25; 3: 0.25; 4: 0.5

Hey, just so you know, these numbers are from ChEMBL document CHEMBL5352460.
